- Tgt: CCAAT/enhancer-binding protein beta (Homo sapiens) (UniProt P17676)
- Sequence (P17676 whole entry, looked up): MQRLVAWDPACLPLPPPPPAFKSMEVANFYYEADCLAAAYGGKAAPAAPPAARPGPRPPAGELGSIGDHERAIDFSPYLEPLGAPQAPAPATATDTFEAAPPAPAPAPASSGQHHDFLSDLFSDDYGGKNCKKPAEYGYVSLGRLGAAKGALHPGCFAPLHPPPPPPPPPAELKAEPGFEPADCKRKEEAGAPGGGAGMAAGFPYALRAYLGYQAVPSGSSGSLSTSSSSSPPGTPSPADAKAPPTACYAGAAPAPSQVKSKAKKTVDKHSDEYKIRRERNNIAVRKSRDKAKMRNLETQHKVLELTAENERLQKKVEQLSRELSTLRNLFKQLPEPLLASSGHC
- Protocol Details: ATG_C_EBP_CIS: Attagene CIS-FACTORIAL HepG2 Assay for human CCAAT/Enhancer Binding Protein (C/EBP) beta (AID 2282927)
- Cond: HepG2 Attagene cis-factorial transcription factor reporter; actives raise or lower the signal
The source made the active and inactive calls. How the source made its calls: active means hit-call score of the fitted dose curve at least 0.9, where 1 is the maximum; inactive means score below 0.9.
Classes to choose from: active, inactive

Before answering, review these 3 worked examples.
CCCCCCOC(=O)CCCCCCCC(=O)OCCCCCC : inactive
CN(C)CCC(c1ccc(Cl)cc1)c1ccccn1 (stereo not given) : inactive
CO[Si](CCCNCCN)(OC)OC : inactive

Q: Query: recorded result category for CC(=O)c1nccs1 in this test
Ans: inactive

Q: Query: recorded result category for CCCC(=O)OC in this test
Ans: inactive

Q: Query: recorded result category for COCCCN in this test
Ans: inactive

Q: Query: recorded result category for O=C(O)c1cc(Cl)cc(Cl)c1O in this test
Ans: inactive

Q: Query: recorded result category for O=C(O)Cc1c[nH]c2ccccc12 in this test
Ans: inactive

Q: Query: recorded result category for Clc1ccc(Sc2cc(Cl)c(Cl)cc2Cl)cc1 in this test
Ans: inactive

Q: Query: recorded result category for CCCCCCCCCCCCCCCCCC[N+](C)(C)C in this test
Ans: active

Q: Query: recorded result category for O=C1NC(=O)[C@@H]2CC=CC[C@H]12 in this test
Ans: inactive
